# System: KM12 colon
# method.summary: NCI tumour cell line growth inhibition, 48 h

molecule	tested.on	TGI
COc1cc2c3c(n(CCCN4CCC(N)CC4)c(=O)c2cc1OC)-c1cc2c(cc1C3=O)OCO2	KM12 colon	1.59 µM
CC1OC(n2cc(F)c(=O)[nH]c2=O)C(O[Si](C)(C)C(C)(C)C)C1O[Si](C)(C)C(C)(C)C (stereo unspecified)	KM12 colon	26.1 µM
NC1=NC(=O)C(CC(=O)Nc2ccc([N+](=O)[O-])cc2[N+](=O)[O-])S1 (stereo unspecified)	KM12 colon	> 100 µM
C=CC(=O)N1CCN(c2ncnc3c(F)c(-c4c(O)cccc4F)c(Cl)cc23)CC1	KM12 colon	28 µM
Cc1cc(C)nc(NS(=O)(=O)c2ccc(Nc3c4ccccc4nc4c(C(=O)NCCO)cccc34)cc2)n1	KM12 colon	22.9 µM
NC(=S)N=Nc1c(O)cc(Nc2ccc(Cl)cc2Cl)c2ccccc12	KM12 colon	> 100 µM
CCC1C(=O)OCc2c1cc1n(c2=O)CCC12OCCO2 (stereo unspecified)	KM12 colon	> 100 µM
CC(=O)n1c(-c2ccc(Cl)cc2)nc2c(c1=O)C(c1ccc(Cl)cc1)c1sc3c(Cl)cccc3c1O2 (stereo unspecified)	KM12 colon	1.78 µM
COc1cc(OC)c(C2c3cc4c(cc3OC(N3CCOCC3)C2C)OCO4)c(OC)c1 (stereo unspecified)	KM12 colon	> 100 µM
Brc1ccc2c(c1)-c1nc3c(cc1CC2)CCc1ccc(Br)cc1-3	KM12 colon	> 100 µM
O=c1cc(-c2ccccc2F)[nH]c2cc3c(cc12)OCO3	KM12 colon	17.1 µM
COc1cc2c3c(n(C)c(=O)c2cc1OC)-c1cc2c(cc1/C3=C/CCCCBr)OCO2	KM12 colon	> 100 µM
C[C@@H]1C(=O)CC2(O)[C@@]13C[C@@H](OC(=O)[C@@H]3O)[C@@H](C)[C@@]21COC1=O (stereo partly specified)	KM12 colon	> 100 µM
CC(C)Cc1c(C#N)c(C#N)c(N)n1Cc1ccccc1	KM12 colon	> 100 µM
COc1ccccc1C(=O)c1ccc2ccccc2c1	KM12 colon	33.2 µM
COc1cc(-c2cn(C)c(=O)c(C)c2C)cc(OC)c1CN1CC[C@H](N2CCN(c3ccc(N[C@H]4CCC(=O)NC4=O)cc3F)CC2)C(F)(F)C1	KM12 colon	30.2 µM
CN(C)c1nc(-c2cccs2)n2nc(-c3ccc(Cl)cc3)cc2n1	KM12 colon	> 100 µM
CCOP(=O)(OCC)c1cc(-c2ccccc2)ccc1N	KM12 colon	> 100 µM
COC(=O)c1sc2ncc3c(c2c1N)CC(C)CC3 (stereo unspecified)	KM12 colon	> 100 µM
COC(=O)C1=C(C(=O)OC)C2(C)CCC(=O)C1O2 (stereo unspecified)	KM12 colon	> 10 µM
CC(=O)OCCOCBr	KM12 colon	> 100 µM

###

# System: LOX IMVI melanoma
# method.summary: NCI tumour cell line growth inhibition, 48 h
Each entry below carries its recorded TGI.

compound	TGI
COc1cc(/C=C\c2ccc(O)cc2)cc(OC)c1OC	> 100 µM
C=C1CC=CC(C)(C)C1C/C=C(\C)C(O)CBr (stereo unspecified)	53.5 µM
CCCSc1cc(Cl)nc(N)n1	> 100 µM
CCN(CC)CCCNc1ccc([N+](=O)[O-])c2nc3ccc(OC)cc3c(NCCCN(CC)CC)c12	2.69 µM
COC(=O)c1sc2ncc3c(c2c1N)CC(C)CC3 (stereo unspecified)	> 100 µM
OC(c1ccco1)C(F)(F)c1nc2ccccc2o1 (stereo unspecified)	> 100 µM
